Reported Residual rate by item:
experiment: Evaluation of conversion rate to active form in buffer solution (Experimental Example 1); assay type: physicochemical; conditions: pH6.5, 0.5 hr
Just the number in %, nothing appended.

# count of solved cases: 2
# compound, unit_info, Residual rate
rows = [
    ("CNC(=O)O[C@@H]1CN(C)CC[C@@H]1c1c(O)cc(O)c2c(=O)cc(-c3ccccc3Cl)oc12 [Comparative Example 5, reference compound]", "%", 93.9),
    ("CCOC(=O)O[C@@H]1CN(C)CC[C@@H]1c1c(O)cc(O)c2c(=O)cc(-c3ccccc3Cl)oc12 [Comparative Example 3, reference compound]", "%", 90.9),
]

Would you kindly look at the next entry?
Problem: Look up Residual rate for this compound: C[C@H](N)C(=O)O[C@@H]1CN(C)CC[C@@H]1c1c(O)cc(O)c2c(=O)cc(-c3ccccc3Cl)oc12 [Comparative Example 7, reference compound]
Result: 65.3

* * *

assay: Evaluation of conversion rate to active form in buffer solution (Experimental Example 1); type: physicochemical; details: pH5.5, 2 hr
Could you mark each record 1.0 if its Production rate of Alvocidib falls strictly under 20%, and 0.0 if it equals or exceeds it?

# compound, class
data = [
    ("C[C@H](N)C(=O)O[C@@H]1CN(C)CC[C@@H]1c1c(O)cc(O)c2c(=O)cc(-c3ccccc3Cl)oc12 [Comparative Example 7, reference compound]", 0.0),
    ("CN1CC[C@H](c2c(O)cc(O)c3c(=O)cc(-c4ccccc4Cl)oc23)[C@H](OC(=O)[C@@H](N)CO)C1 [Comparative Example 9, reference compound]", 1.0),
    ("CN1CC[C@H](c2c(OC(=O)N(C)CCN)cc(O)c3c(=O)cc(-c4ccccc4Cl)oc23)[C@H](O)C1 [Comparative Example 13, reference compound]", 0.0),
    ("CCNC(=O)O[C@@H]1CN(C)CC[C@@H]1c1c(O)cc(O)c2c(=O)cc(-c3ccccc3Cl)oc12 [Comparative Example 4, reference compound]", 1.0),
    ("CCOC(=O)O[C@@H]1CN(C)CC[C@@H]1c1c(O)cc(O)c2c(=O)cc(-c3ccccc3Cl)oc12 [Comparative Example 3, reference compound]", 1.0),
]

Problem: Please determine if CNC(=O)O[C@@H]1CN(C)CC[C@@H]1c1c(O)cc(O)c2c(=O)cc(-c3ccccc3Cl)oc12 [Comparative Example 5, reference compound] is below 20% in terms of Production rate of Alvocidib.
Result: 1.0

Problem: Please determine if CNC(=O)Oc1cc(O)c2c(=O)cc(-c3ccccc3Cl)oc2c1[C@H]1CCN(C)C[C@H]1O [Comparative Example 2, reference compound] is below 20% in terms of Production rate of Alvocidib.
Result: 0.0

Problem: Please determine if CN1CC[C@H](c2c(O)cc(O)c3c(=O)cc(-c4ccccc4Cl)oc23)[C@H](OC(=O)CN)C1 [Comparative Example 8, reference compound] is below 20% in terms of Production rate of Alvocidib.
Result: 0.0

Problem: Please determine if CNCCN(C)C(=O)Oc1cc(O)c2c(=O)cc(-c3ccccc3Cl)oc2c1[C@H]1CCN(C)C[C@H]1O [Comparative Example 14, reference compound] is below 20% in terms of Production rate of Alvocidib.
Result: 0.0

Problem: Please determine if CC(C)[C@H](N)C(=O)O[C@@H]1CN(C)CC[C@@H]1c1c(O)cc(O)c2c(=O)cc(-c3ccccc3Cl)oc12 [Comparative Example 10, reference compound] is below 20% in terms of Production rate of Alvocidib.
Result: 1.0

* * *

Reported Residual rate by item:
assay: Evaluation of conversion rate to active form in buffer solution (Experimental Example 1); type: physicochemical; conditions: pH7.0, 2 hr
Just the number in %, nothing appended.

# count of solved cases: 2
# compound, unit_info, data_value
measured = [
    ("CNCCN(C)C(=O)Oc1cc(O)c2c(=O)cc(-c3ccccc3Cl)oc2c1[C@H]1CCN(C)C[C@H]1O [Comparative Example 14, reference compound]", "%", 0.0),
    ("CN1CC[C@H](c2c(O)cc(O)c3c(=O)cc(-c4ccccc4Cl)oc23)[C@H](OC(=O)[C@@H](N)CO)C1 [Comparative Example 9, reference compound]", "%", 52.8),
]

Would you kindly look at the next entry?
Problem: Look up Residual rate for this compound: CC(C)[C@H](N)C(=O)O[C@@H]1CN(C)CC[C@@H]1c1c(O)cc(O)c2c(=O)cc(-c3ccccc3Cl)oc12 [Comparative Example 10, reference compound]
Result: 81.5

* * *

assay: Evaluation of conversion rate to active form in buffer solution (Experimental Example 1); type: physicochemical; settings: pH5.0, 3 hr
Where Residual rate equals or exceeds 80%, the correct label is YES; where it does not, the label is NO.

Please review the entries below; each comes with its answer.
# compound, class
measured = [
    ("CNC(=O)Oc1cc(O)c2c(=O)cc(-c3ccccc3Cl)oc2c1[C@H]1CCN(C)C[C@H]1O [Comparative Example 2, reference compound]", "NO"),
    ("CNCCN(C)C(=O)Oc1cc(O)c2c(=O)cc(-c3ccccc3Cl)oc2c1[C@H]1CCN(C)C[C@H]1O [Comparative Example 14, reference compound]", "NO"),
    ("CCNC(=O)O[C@@H]1CN(C)CC[C@@H]1c1c(O)cc(O)c2c(=O)cc(-c3ccccc3Cl)oc12 [Comparative Example 4, reference compound]", "YES"),
    ("C[C@H](N)C(=O)O[C@@H]1CN(C)CC[C@@H]1c1c(O)cc(O)c2c(=O)cc(-c3ccccc3Cl)oc12 [Comparative Example 7, reference compound]", "NO"),
    ("CC(C)[C@H](N)C(=O)O[C@@H]1CN(C)CC[C@@H]1c1c(O)cc(O)c2c(=O)cc(-c3ccccc3Cl)oc12 [Comparative Example 10, reference compound]", "YES"),
]

Now let's try a different one.
Problem: Tell me whether Residual rate is at least 80% here: CN1CC[C@H](c2c(O)cc(O)c3c(=O)cc(-c4ccccc4Cl)oc23)[C@H](OC(=O)[C@@H](N)CO)C1 [Comparative Example 9, reference compound]
Result: NO

* * *

assay: Evaluation of conversion rate to active form in buffer solution (Experimental Example 1); format: physicochemical; details: pH7.0, 0 hr
recorded_endpoint: Residual rate

# molecule, Residual rate
rows = [
    ("C[C@H](N)C(=O)O[C@@H]1CN(C)CC[C@@H]1c1c(O)cc(O)c2c(=O)cc(-c3ccccc3Cl)oc12 [Comparative Example 7, reference compound]", "95.9%"),
    ("CNCCN(C)C(=O)Oc1cc(O)c2c(=O)cc(-c3ccccc3Cl)oc2c1[C@H]1CCN(C)C[C@H]1O [Comparative Example 14, reference compound]", "91.7%"),
    ("CN1CC[C@H](c2c(O)cc(O)c3c(=O)cc(-c4ccccc4Cl)oc23)[C@H](OC(=O)CN)C1 [Comparative Example 8, reference compound]", "83.1%"),
    ("CN1CC[C@H](c2c(OC(=O)N(C)CCN)cc(O)c3c(=O)cc(-c4ccccc4Cl)oc23)[C@H](O)C1 [Comparative Example 13, reference compound]", "97.8%"),
]

Problem: Look up Residual rate for this molecule: CNC(=O)Oc1cc(O)c2c(=O)cc(-c3ccccc3Cl)oc2c1[C@H]1CCN(C)C[C@H]1O [Comparative Example 2, reference compound]
Result: 81.8%

Problem: Look up Residual rate for this molecule: CCOC(=O)O[C@@H]1CN(C)CC[C@@H]1c1c(O)cc(O)c2c(=O)cc(-c3ccccc3Cl)oc12 [Comparative Example 3, reference compound]
Result: 91.0%

* * *

Reported Residual rate (%) of test compound by item:
Assay: Evaluation of conversion rate to active form in human plasma (Experimental Example 3)
Type: in vitro ADME
Settings: Human plasma, 0.2 μmol/L, 37° C., 30 min
Method: For Example 1, Example 2, Example 3, Example 4, Example 5, Example 6, Comparative Example 3, Comparative Example 4, Comparative Example 6, Comparative Example 7, Comparative Example 8, Comparative Example 9, Comparative Example 10 and Comparative Example 12, the attrition rate of the test compound and the conversion rate of the test compound to Alvocidib in human plasma and BALB/c mouse plasma were calculated by the following method. […]
Just the number in %, nothing appended.

# count of solved cases: 5
# compound, unit_info, data_value
data = [
    ("CN1CC[C@H](c2c(OC(=O)N(C)C[C@H]3CCCCN3)cc(O)c3c(=O)cc(-c4ccccc4Cl)oc23)[C@H](O)C1", "%", 4),
    ("CN1CC[C@H](c2c(OC(=O)N(C)C[C@@H]3CCCCN3)cc(O)c3c(=O)cc(-c4ccccc4Cl)oc23)[C@H](O)C1", "%", 3),
    ("CCN(C[C@@H]1CCCCN1)C(=O)Oc1cc(O)c2c(=O)cc(-c3ccccc3Cl)oc2c1[C@H]1CCN(C)C[C@H]1O [Example 1, ditrifluoroacetate]", "%", 6),
    ("CCCN(C[C@@H]1CCCCN1)C(=O)Oc1cc(O)c2c(=O)cc(-c3ccccc3Cl)oc2c1[C@H]1CCN(C)C[C@H]1O", "%", 1),
    ("CCN(C[C@H]1CCCCN1)C(=O)Oc1cc(O)c2c(=O)cc(-c3ccccc3Cl)oc2c1[C@H]1CCN(C)C[C@H]1O", "%", 4),
]

Would you kindly look at the next entry?
Problem: Look up Residual rate (%) of test compound for this compound: CCCN(C[C@H]1CCCCN1)C(=O)Oc1cc(O)c2c(=O)cc(-c3ccccc3Cl)oc2c1[C@H]1CCN(C)C[C@H]1O
Result: 3
